Hey, just so you know, these numbers are from paper PMC3573846.

experiment.summary: in vivo
stated.conditions: male, FVB wild type, mouse, plasma, iv, 5 mg/kg
quantity.kind: Vd (L/kg)
Please state the figure in L/kg; there is no need to write the unit.

Any idea what Vd was measured for "Cc1ccc(Nc2nccc(N(C)c3ccc4c(C)n(C)nc4c3)n2)cc1S(N)(=O)=O" ?
0.286

====

experiment.summary: in vivo
stated.conditions: male, FVB wild type, mouse, brain/plasma, iv, 5 mg/kg
quantity.kind: Kp
Just the number, please, no unit after it.

Any idea what Kp was measured for "Cc1ccc(Nc2nccc(N(C)c3ccc4c(C)n(C)nc4c3)n2)cc1S(N)(=O)=O" ?
0.015

====

target.or.system: P-gp (MDR1) (Homo sapiens)
experiment.summary: Bi-directional transport across MDCK-MDR1 monolayers
Assay type: in vitro ADME
stated.conditions: dog, MDCK-MDR1, Efflux ratio, MDCK-MDR1, 5 μM pazopanib, no inhibitor
quantity.kind: efflux ratio at 240 min, 5 μM
Just the number, please, no unit after it.

Any idea what efflux ratio at 240 min, 5 μM was measured for Cc1ccc(Nc2nccc(N(C)c3ccc4c(C)n(C)nc4c3)n2)cc1S(N)(=O)=O [Pazopanib] ?
1.7

====

experiment.summary: in vivo
stated.conditions: male, FVB, mouse, brain/plasma, intravenous, 5 mg/kg
quantity.kind: Kp at 30 min
Just the number, please, no unit after it.

Any idea what Kp at 30 min was measured for "Cc1ccc(Nc2nccc(N(C)c3ccc4c(C)n(C)nc4c3)n2)cc1S(N)(=O)=O" ?
0.0113

====

target.or.system: P-gp (MDR1) (Homo sapiens, UniProt P08183)
Sequence (P08183 whole entry): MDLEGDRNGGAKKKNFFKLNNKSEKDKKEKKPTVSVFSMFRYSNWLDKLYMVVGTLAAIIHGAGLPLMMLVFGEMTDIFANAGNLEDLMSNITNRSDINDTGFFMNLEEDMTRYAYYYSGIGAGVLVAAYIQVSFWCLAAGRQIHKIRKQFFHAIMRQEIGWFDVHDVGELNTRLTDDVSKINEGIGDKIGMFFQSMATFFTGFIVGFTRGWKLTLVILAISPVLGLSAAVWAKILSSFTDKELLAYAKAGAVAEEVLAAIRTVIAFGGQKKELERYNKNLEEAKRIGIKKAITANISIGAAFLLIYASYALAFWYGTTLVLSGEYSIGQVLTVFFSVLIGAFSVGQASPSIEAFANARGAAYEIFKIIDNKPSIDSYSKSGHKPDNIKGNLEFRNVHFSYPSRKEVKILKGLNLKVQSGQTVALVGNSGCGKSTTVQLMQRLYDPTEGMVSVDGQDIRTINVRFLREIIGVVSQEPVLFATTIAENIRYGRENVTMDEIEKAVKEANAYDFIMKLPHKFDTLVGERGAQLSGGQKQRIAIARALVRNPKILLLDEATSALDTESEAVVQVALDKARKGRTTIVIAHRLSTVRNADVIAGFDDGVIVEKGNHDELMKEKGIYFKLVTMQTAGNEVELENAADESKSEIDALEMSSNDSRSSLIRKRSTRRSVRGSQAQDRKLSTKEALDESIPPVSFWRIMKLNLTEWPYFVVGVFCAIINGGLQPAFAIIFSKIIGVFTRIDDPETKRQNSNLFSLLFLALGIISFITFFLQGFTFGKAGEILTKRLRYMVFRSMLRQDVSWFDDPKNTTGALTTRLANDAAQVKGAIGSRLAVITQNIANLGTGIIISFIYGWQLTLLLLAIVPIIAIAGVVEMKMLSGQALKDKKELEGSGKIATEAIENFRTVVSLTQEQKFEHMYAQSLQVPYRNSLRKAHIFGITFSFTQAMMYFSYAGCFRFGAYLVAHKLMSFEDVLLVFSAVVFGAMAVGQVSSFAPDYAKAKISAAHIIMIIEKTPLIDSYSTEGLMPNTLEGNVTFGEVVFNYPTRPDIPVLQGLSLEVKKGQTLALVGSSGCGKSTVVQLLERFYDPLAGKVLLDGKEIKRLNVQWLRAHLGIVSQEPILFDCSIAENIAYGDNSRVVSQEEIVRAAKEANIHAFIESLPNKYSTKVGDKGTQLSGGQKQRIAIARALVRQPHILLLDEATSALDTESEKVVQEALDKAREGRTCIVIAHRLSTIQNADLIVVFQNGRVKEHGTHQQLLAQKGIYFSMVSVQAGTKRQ
experiment.summary: Bi-directional transport across MDCK-MDR1 monolayers
Type: in vitro ADME
stated.conditions: dog, MDCK-MDR1
quantity.kind: Papp A→B at 240 min, 5 μM
# answer = value followed by unit

Any idea what Papp A→B at 240 min, 5 μM was measured for "Cc1ccc(Nc2nccc(N(C)c3ccc4c(C)n(C)nc4c3)n2)cc1S(N)(=O)=O" ?
37.3 nm/s

====

experiment.summary: in vivo
stated.conditions: male, FVB, mouse, plasma, iv, 5 mg/kg
quantity.kind: half-life (h)
Please state the figure in h; there is no need to write the unit.

Any idea what half-life was measured for "Cc1ccc(Nc2nccc(N(C)c3ccc4c(C)n(C)nc4c3)n2)cc1S(N)(=O)=O" ?
1.4

====

target.or.system: Bcrp1 (murine) (Mus musculus, UniProt Q7TMS5)
Sequence (Q7TMS5 whole entry): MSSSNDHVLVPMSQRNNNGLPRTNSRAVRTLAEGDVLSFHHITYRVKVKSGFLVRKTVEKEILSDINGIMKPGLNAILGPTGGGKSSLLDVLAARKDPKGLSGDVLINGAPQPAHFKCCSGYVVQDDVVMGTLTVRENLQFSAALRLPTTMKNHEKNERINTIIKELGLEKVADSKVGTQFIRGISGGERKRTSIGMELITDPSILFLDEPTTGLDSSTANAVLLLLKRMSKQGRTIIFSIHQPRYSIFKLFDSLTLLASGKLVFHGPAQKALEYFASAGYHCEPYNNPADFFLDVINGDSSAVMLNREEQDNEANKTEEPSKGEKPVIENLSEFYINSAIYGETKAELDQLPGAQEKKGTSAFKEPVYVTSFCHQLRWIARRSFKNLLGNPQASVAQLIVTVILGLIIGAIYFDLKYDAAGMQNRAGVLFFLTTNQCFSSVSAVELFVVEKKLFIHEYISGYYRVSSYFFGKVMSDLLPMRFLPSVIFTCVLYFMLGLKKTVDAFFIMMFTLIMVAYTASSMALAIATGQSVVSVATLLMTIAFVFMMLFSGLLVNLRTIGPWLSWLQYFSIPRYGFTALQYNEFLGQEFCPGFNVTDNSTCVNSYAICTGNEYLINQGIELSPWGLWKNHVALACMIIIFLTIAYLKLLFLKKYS
experiment.summary: Bi-directional transport across MDCK-Bcrp1 monolayers
Type: in vitro ADME
stated.conditions: dog
quantity.kind: Papp A→B at 240 min, 5 μM (×10⁻⁶ cm/s)
Please state the figure in ×10⁻⁶ cm/s; there is no need to write the unit.

Any idea what Papp A→B at 240 min, 5 μM was measured for "Cc1ccc(Nc2nccc(N(C)c3ccc4c(C)n(C)nc4c3)n2)cc1S(N)(=O)=O" ?
0.2

====

experiment.summary: in vivo
stated.conditions: male, FVB, mouse, brain, intravenous, 5 mg/kg
quantity.kind: concentration at 15 min (ng/g)
Please state the figure in ng/g; there is no need to write the unit.

Any idea what concentration at 15 min was measured for "Cc1ccc(Nc2nccc(N(C)c3ccc4c(C)n(C)nc4c3)n2)cc1S(N)(=O)=O" ?
293

====

experiment.summary: in vivo
stated.conditions: male, FVB wild type, mouse, brain, iv, 5 mg/kg
quantity.kind: k el (s⁻¹)
Please state the figure in s⁻¹; there is no need to write the unit.

Any idea what k el was measured for Cc1ccc(Nc2nccc(N(C)c3ccc4c(C)n(C)nc4c3)n2)cc1S(N)(=O)=O [Pazopanib] ?
0.000103

====

experiment.summary: in vivo
stated.conditions: male, FVB, mouse, brain, intravenous, 5 mg/kg
quantity.kind: concentration at 30 min (ng/g)
Please state the figure in ng/g; there is no need to write the unit.

Any idea what concentration at 30 min was measured for "Cc1ccc(Nc2nccc(N(C)c3ccc4c(C)n(C)nc4c3)n2)cc1S(N)(=O)=O" ?
157

====

target.or.system: P-gp (MDR1) (Homo sapiens)
experiment.summary: Bi-directional transport across MDCK-MDR1 monolayers
Format: in vitro ADME
stated.conditions: dog, MDCK-MDR1
quantity.kind: Papp B→A at 240 min, 5 μM

Any idea what Papp B→A at 240 min, 5 μM was measured for "Cc1ccc(Nc2nccc(N(C)c3ccc4c(C)n(C)nc4c3)n2)cc1S(N)(=O)=O" ?
6.3 ×10⁻⁶ cm/s

====

experiment.summary: in vivo
stated.conditions: male, FVB wild type, mouse, plasma, iv, 5 mg/kg
quantity.kind: k el (s⁻¹)
Please state the figure in s⁻¹; there is no need to write the unit.

Any idea what k el was measured for "Cc1ccc(Nc2nccc(N(C)c3ccc4c(C)n(C)nc4c3)n2)cc1S(N)(=O)=O" ?
0.000139

====

experiment.summary: Bi-directional transport across MDCK-WT monolayers
Type: in vitro ADME, canine
stated.conditions: dog
quantity.kind: Papp B→A at 240 min, 5 μM (×10⁻⁶ cm/s)
Please state the figure in ×10⁻⁶ cm/s; there is no need to write the unit.

Any idea what Papp B→A at 240 min, 5 μM was measured for Cc1ccc(Nc2nccc(N(C)c3ccc4c(C)n(C)nc4c3)n2)cc1S(N)(=O)=O [Pazopanib] ?
3.1

====

experiment.summary: in vivo
stated.conditions: male, FVB wild type, mouse, plasma, iv, 5 mg/kg
quantity.kind: clearance (mL/min/kg)
Please state the figure in mL/min/kg; there is no need to write the unit.

Any idea what clearance was measured for "Cc1ccc(Nc2nccc(N(C)c3ccc4c(C)n(C)nc4c3)n2)cc1S(N)(=O)=O" ?
2.38
